# Target: oligonucleotide capable of forming a monomeric G-quadruplex structure
# Experimental Protocol: Test of affinity No. 2: dissociation constant of the complex with a monomeric G-quadruplex oligonucleotide, by fluorescence
# Assay type: binding
# Conditions Used: 20° C., sodium cacodylate pH 7.2, 100 mM potassium chloride (K+); read-out: Affinity/selectivity G4 Test 2 (Kd by fluorescence) Kd
Overview of recorded Kd for various compounds
Give the quantity in nM, number only.

- Compound: "C[n+]1cccc2cc(NC(=O)c3cccc(C(=O)Nc4cc5ccccc5[n+](C)c4)n3)ccc21.[I-].[I-] [Example 9]"
  Kd / nM: 0.7

Continue with the compound presented below.
// query Entry under review: C[n+]1cccc2cc(NC(=O)c3cccc(C(=O)Nc4ccc5c(ccc[n+]5C)c4)n3)ccc21.[I-].[I-] [Example 1] . Reported Kd?
// result 7

* * *

# Target: oligonucleotide capable of forming a monomeric G-quadruplex structure
# Experimental Protocol: Test of affinity No. 2: dissociation constant of the complex with a monomeric G-quadruplex oligonucleotide, by fluorescence
# Type: binding
# Conditions Used: Na+; read-out: Affinity/selectivity G4 Test 2 (Kd by fluorescence) Kd
Quantity Name: Kd (nM)
Give the quantity in nM, number only.

// query Entry under review: C[n+]1cccc2cc(NC(=O)c3cccc(C(=O)Nc4cc5ccccc5[n+](C)c4)n3)ccc21.[I-].[I-] [Example 9] . Reported Kd?
// result 3.2

Reference for the values: patent US20070232572A1
